This document collects pIC50 values reported for UniProt Q4GZ95.
Sequence (Q4GZ95 entry or part of it): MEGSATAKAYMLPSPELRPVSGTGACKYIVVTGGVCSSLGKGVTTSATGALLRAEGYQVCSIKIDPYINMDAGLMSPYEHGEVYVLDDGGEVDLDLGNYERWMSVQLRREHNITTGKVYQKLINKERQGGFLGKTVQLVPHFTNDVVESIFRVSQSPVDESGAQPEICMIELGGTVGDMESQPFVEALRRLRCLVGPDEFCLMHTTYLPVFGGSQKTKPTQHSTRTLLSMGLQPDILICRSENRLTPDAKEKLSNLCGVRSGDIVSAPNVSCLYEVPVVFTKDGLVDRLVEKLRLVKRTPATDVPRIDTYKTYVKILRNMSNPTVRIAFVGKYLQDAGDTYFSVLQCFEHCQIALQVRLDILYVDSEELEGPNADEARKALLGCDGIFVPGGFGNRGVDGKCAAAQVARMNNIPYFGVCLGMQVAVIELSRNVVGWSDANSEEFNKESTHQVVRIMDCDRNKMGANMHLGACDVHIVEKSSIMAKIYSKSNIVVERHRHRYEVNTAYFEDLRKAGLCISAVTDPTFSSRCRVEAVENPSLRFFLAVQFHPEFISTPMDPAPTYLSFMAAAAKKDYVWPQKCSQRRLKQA
Recall that pIC50 is obtained by taking minus log10 of the concentration measured in molar.

Query: Give the observed pIC50 of N[C@H](C(=O)O)[C@@H]1CC(Br)=NO1 for UniProt Q4GZ95.
Reply: 7.01

Query: Recall the reported pIC50 of N[C@H](C(=O)O)[C@@H]1CC(Cl)=NO1 when tested on UniProt Q4GZ95.
Reply: 6.49
